SYSTEM TESTED: Histone deacetylase 4 (Homo sapiens)
Sequence (P56524 whole entry): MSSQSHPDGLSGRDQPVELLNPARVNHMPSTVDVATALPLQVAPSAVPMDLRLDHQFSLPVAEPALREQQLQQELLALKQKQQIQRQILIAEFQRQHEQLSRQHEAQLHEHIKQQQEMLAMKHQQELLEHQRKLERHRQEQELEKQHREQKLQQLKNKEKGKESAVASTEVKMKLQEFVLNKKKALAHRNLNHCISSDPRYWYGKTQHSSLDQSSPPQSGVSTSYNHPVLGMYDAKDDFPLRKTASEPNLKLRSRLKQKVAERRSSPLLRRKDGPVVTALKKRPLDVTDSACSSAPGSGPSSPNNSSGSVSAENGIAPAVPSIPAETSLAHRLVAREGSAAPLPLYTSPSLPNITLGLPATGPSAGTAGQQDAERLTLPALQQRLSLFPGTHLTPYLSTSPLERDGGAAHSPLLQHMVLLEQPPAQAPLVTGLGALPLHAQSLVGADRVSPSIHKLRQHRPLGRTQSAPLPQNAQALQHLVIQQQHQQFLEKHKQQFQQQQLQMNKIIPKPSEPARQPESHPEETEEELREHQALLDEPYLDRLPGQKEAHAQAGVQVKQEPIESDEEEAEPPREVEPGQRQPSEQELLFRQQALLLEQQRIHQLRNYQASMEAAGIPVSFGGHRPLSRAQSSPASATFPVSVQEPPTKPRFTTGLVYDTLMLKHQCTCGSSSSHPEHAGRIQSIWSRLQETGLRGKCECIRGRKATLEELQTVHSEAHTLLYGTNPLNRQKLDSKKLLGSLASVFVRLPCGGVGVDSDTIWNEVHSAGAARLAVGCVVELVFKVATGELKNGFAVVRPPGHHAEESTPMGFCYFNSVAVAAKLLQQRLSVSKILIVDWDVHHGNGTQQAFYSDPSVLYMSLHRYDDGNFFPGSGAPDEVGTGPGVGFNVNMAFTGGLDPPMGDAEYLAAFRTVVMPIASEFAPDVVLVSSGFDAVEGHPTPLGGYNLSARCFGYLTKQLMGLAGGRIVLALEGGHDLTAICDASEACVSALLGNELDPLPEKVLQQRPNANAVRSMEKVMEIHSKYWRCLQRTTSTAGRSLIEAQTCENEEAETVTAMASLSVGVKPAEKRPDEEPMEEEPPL
RUN DESCRIPTION: Inhibition of recombinant HDAC4 (unknown origin) using Boc-Lys(trifluoroacetyl)-AMC as substrate pre-incubated for 1 hr followed by substrate addition and measured after 2 hrs by fluorescence based assay
CONDITION LABEL: read-out: IC50

| CHEMICAL STRING | SYSTEM TESTED | INEQUALITY SYMBOL | IC50, µM |
| --- | --- | --- | --- |
| COc1ccc2c(c1)c(CCNC(C)=O)cn2Cc1ccc(C(=O)NO)cc1 | Histone deacetylase 4 (Homo sapiens) | = | 3.43 |
| COc1ccc2[nH]cc(CCN(Cc3ccc(C(=O)NO)cc3)C(=O)/C=C/c3ccc(O)c(OC)c3)c2c1 | Histone deacetylase 4 (Homo sapiens) | > | 10 |

====

RUN DESCRIPTION: Antioxidant activity of compound assessed as trolox equivalent of AAPH radical scavenging activity at 2 to 4 uM preincubated for 15 mins followed by AAPH addition and measured every 2 mins for 90 mins by ORAC-fluorescein assay
Assay type: functional
CONDITION LABEL: dose 2-4 µM, time 105.0 min
Reported ORAC antioxidant capacity (Trolox equivalents) values are given for each entry in this list.
EXPERIMENTAL READOUT: ORAC antioxidant capacity (Trolox equivalents)

| MOLECULE | EXPERIMENTAL VALUE |
| --- | --- |
| O=C(CCCCCCNC(=O)c1cnc(N(c2ccccc2)c2ccccc2)nc1)NO | 0.5 |
| COc1ccc2c(c1)c(CCNC(C)=O)cn2Cc1ccc(C(=O)NO)cc1 | 1.6 |
| COc1ccc2[nH]cc(CCNCc3ccc(C(=O)NO)cc3)c2c1 | 3 |
| COc1ccc2[nH]cc(CCNC(=O)/C=C/c3ccc(C(=O)NO)cc3)c2c1 | 2 |
| COc1cc(/C=C/C(=O)O)ccc1O [FERULATE] | 3.1 |
| COc1ccc2[nH]cc(CCN(Cc3ccc(/C=C/C(=O)NO)cc3)C(=O)/C=C/c3ccc(O)c(OC)c3)c2c1 | 1 |
| COc1ccc2[nH]cc(CCNC(=O)CN(Cc3ccc(/C=C/C(=O)NO)cc3)C(=O)/C=C/c3ccc(O)c(OC)c3)c2c1 | 1.2 |
| COc1ccc2[nH]cc(CCNC(=O)c3ccc(C(=O)NO)cc3)c2c1 | 2.4 |
| COc1ccc2[nH]cc(CCN(Cc3ccc(C(=O)NO)cc3)C(=O)/C=C/c3ccc(O)c(OC)c3)c2c1 | 2.1 |
| COc1ccc2[nH]cc(CCNCc3ccc(/C=C/C(=O)NO)cc3)c2c1 | 2.4 |
| COc1ccc2c(c1)c(CCNC(C)=O)cn2Cc1ccc(/C=C/C(=O)NO)cc1 | 1.4 |
| COc1ccc2[nH]cc(CCNC(=O)CCCCC(=O)NO)c2c1 | 3 |
| COc1ccc2[nH]cc(CCNC(=O)CN(CCCCCC(=O)NO)C(=O)/C=C/c3ccc(O)c(OC)c3)c2c1 | 3.2 |
| COc1ccc2[nH]cc(CCNC(C)=O)c2c1 | 2 |
| COc1ccc2c(c1)c(CCNC(C)=O)cn2CCCCCC(=O)NO | 1.6 |
| COc1ccc2[nH]cc(CCNC(=O)c3ccc(/C=C/C(=O)NO)cc3)c2c1 | 2 |
| COc1ccc2[nH]cc(CCNC(=O)CN(Cc3ccc(C(=O)NO)cc3)C(=O)/C=C/c3ccc(O)c(OC)c3)c2c1 | 1.6 |
| COc1ccc2[nH]cc(CCN(CCCCCC(=O)NO)C(=O)/C=C/c3ccc(O)c(OC)c3)c2c1 | 2.8 |
